- test method notes: FRAP (ferric reducing antioxidant power) assay
- setup conditions: Ccompound 5 µM; Fe2+ equivalents
test readout: FRAP Values C Fe2+ (µM)
One number for each entry, in µM.

// worked examples, FRAP Values C Fe2+ included
| compound | test value |
| --- | --- |
| O=C1O[C@H]([C@@H](O)CO)C(O)=C1O [L-ascorbic acid, reference compound] | 81.70 |
| Cc1c(C)c2c(c(C)c1O)CCC(C)(C(=O)O)O2 (centres unmarked) [Trolox, reference compound] | 70.85 |
| O=C(/C=C/c1ccc(O)c(O)c1)O[C@@H]1C[C@](O)(C(=O)[O-])C[C@@H](O)[C@H]1O.[Na+] [Na 5-CQA, sodium chlorogenate] | 141.13 |
| O=C(/C=C/c1ccc(O)c(O)c1)O[C@@H]1C[C@](O)(C(=O)[O-])C[C@@H](O)[C@H]1O.[K+] [K 5-CQA, potassium chlorogenate] | 132.00 |

Please look at the following compound next.
Exam item: Tell me its FRAP Values C Fe2+ given Cc1cc(C(C)(C)C)c(O)c(C(C)(C)C)c1 [BHT, butylated hydroxytoluene, reference compound] as the entry.
Marked response: 69.66

Source: paper PMC5855685
